Reference source for all entries: ChEMBL document CHEMBL4007424

- Tested on: Mus musculus
- test summary: Antiinflammatory activity in arachidonic acid-induced ear dermatitis ICR mouse model assessed as reduction in ear swelling at 3 mg administered twice tropically 30 mins prior and 15 mins after arachidonic acid addition measured 60 mins post arachidonic acid challenge relative to control
- Format: functional
recorded endpoint: inhibition (INH) (%)
Response body: numeric value in %, unit text excluded.

item smiles	inhibition (INH) / %
COC(=O)N1CCN(C(=O)Cc2ccc(Cl)c(Cl)c2)[C@@H]2[C@@H](N3CC[C@@H](O)C3)CCC[C@@H]21	60
COC(=O)N1CCN(C(=O)Cc2ccc(Cl)c(F)c2)[C@@H]2[C@@H](N3CC[C@H](O)C3)CCC[C@@H]21	68
CS(=O)(=O)N1CCN(C(=O)Cc2ccc(Cl)c(Cl)c2)[C@@H]2[C@@H](N3CC[C@H](O)C3)CCC[C@@H]21	56
COC(=O)N1CCN(C(=O)Cc2ccc(F)c(F)c2)[C@@H]2[C@@H](N3CC[C@H](O)C3)CCC[C@@H]21	64
COC(=O)N1CCN(C(=O)Cc2ccc(Cl)c(Cl)c2)[C@@H]2[C@@H](N3CC[C@H](O)C3)CCC[C@@H]21	66
COC(=O)N1CCN(C(=O)Cc2cccc(Cl)c2)[C@@H]2[C@@H](N3CC[C@H](O)C3)CCC[C@@H]21	55

Identify the measured inhibition (INH) of COC(=O)N1CCN(C(=O)Cc2ccc(F)c(Cl)c2)[C@@H]2[C@@H](N3CC[C@H](F)C3)CCC[C@@H]21 for Mus musculus. 60

----------
- study target: Kappa-type opioid receptor (Homo sapiens)
- test summary: Agonist activity at recombinant human kappa-type opioid receptor expressed in HEK293 cells after 30 mins by [35S]GTPgammaS binding assay
Binarize EC50 at 3 nM; below is y, at or above is n.

item smiles	group label
COC(=O)N1CCN(C(=O)Cc2ccc(Cl)c(Cl)c2)[C@@H]2[C@@H](N3CC[C@H](O)C3)CCC[C@@H]21	y

Does the reported EC50 of CCOC(=O)CN1CCN(C(=O)Cc2ccc(Cl)c(Cl)c2)[C@@H]2[C@@H](N3CCCC3)CCC[C@@H]21 stay below 3 nM? n

Does the reported EC50 of CS(=O)(=O)N1CCN(C(=O)Cc2ccc(F)c(Cl)c2)[C@@H]2[C@@H](N3CC[C@H](O)C3)CCC[C@@H]21 stay below 3 nM? n

Does the reported EC50 of COC(=O)N1CCN(C(=O)Cc2ccc(F)c(F)c2)[C@@H]2[C@@H](N3CC[C@H](O)C3)CCC[C@@H]21 stay below 3 nM? n

----------
- test summary: Plasma concentration in Wistar Han rat at 0.3 mg/kg, iv measured 1 hr post compound administration
- Type: ADME, organism-based
recorded endpoint: concentration at 1 h (ng/mL)
Response body: numeric value in ng/mL, unit text excluded.

Find the recorded concentration at 1 h belonging to COC(=O)N1CCN(C(=O)Cc2ccc(Cl)c(Cl)c2)[C@@H]2[C@@H](N3CCCC3)CCC[C@@H]21.Cl and report it. 37.3

----------
// reported Ki for each item listed
- study target: Kappa-type opioid receptor (Cavia porcellus)
- Sequence (P41144 whole entry): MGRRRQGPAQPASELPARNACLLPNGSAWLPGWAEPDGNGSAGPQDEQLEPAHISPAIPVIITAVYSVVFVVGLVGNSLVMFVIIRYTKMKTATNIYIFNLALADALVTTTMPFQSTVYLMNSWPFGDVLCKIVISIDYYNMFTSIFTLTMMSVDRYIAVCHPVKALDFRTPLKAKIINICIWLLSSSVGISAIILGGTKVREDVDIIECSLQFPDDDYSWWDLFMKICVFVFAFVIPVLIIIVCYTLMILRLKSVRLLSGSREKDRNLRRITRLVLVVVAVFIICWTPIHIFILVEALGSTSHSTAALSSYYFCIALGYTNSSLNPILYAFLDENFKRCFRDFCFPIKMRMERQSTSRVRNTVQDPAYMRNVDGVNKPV
- test summary: Displacement of [3H]U-69,593 from kappa-type opioid receptor in guinea pig brain membranes after 120 mins by solid scintillation counting
- Assay type: cell membranes, Membrane

Worked cases, answers included:
item smiles	Ki
CS(=O)(=O)N1CCN(C(=O)Cc2ccc(Cl)c(Cl)c2)[C@@H]2[C@@H](N3CCCC3)CCC[C@@H]21	310 pM
COC(=O)N1CCN(C(=O)Cc2ccc(F)c(Cl)c2)[C@@H]2[C@@H](N3CC[C@H](F)C3)CCC[C@@H]21	560 pM
COC(=O)N1CCN(C(=O)Cc2ccc(C(F)(F)F)c(Cl)c2)[C@@H]2[C@@H](N3CC[C@H](O)C3)CCC[C@@H]21	270 pM
CC(C)OC(=O)CN1CCN(C(=O)Cc2ccc(Cl)c(Cl)c2)[C@@H]2[C@@H](N3CCCC3)CCC[C@@H]21	1400 pM
COC(=O)N1CCN(C(=O)Cc2ccc(F)c(Cl)c2)[C@@H]2[C@@H](N3CC[C@H](O)C3)CCC[C@@H]21	820 pM
COC(=O)N1CCN(C(=O)Cc2ccc(Cl)c(Cl)c2)[C@@H]2[C@@H](N3CC[C@@H](O)C3)CCC[C@@H]21	1300 pM

Next item in the queue.
Find the recorded Ki belonging to COC(=O)N1CCN(C(=O)Cc2ccc(Cl)c(Cl)c2)[C@@H]2[C@@H](N3CC[C@H](O)C3)CCC[C@@H]21 and report it. 450 pM

----------
- study target: Kappa-type opioid receptor (Homo sapiens, UniProt P41145)
- Sequence (P41145 whole entry): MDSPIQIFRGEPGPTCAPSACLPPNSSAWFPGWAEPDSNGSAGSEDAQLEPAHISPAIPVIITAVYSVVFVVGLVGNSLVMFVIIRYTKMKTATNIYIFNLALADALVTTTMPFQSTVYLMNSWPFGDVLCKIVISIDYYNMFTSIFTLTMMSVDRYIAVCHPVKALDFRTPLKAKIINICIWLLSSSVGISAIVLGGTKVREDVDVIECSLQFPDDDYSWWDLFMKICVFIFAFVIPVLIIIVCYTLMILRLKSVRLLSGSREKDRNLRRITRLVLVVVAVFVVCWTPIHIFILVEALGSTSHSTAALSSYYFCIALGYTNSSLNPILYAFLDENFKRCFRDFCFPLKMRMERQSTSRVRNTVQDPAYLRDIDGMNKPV
- test summary: Agonist activity at recombinant human kappa-type opioid receptor expressed in HEK293 cells at 1 uM after 30 mins by [35S]GTPgammaS binding assay
- Type: functional, cell-based
// reported Activity for each item listed
Response body: numeric value in %, unit text excluded.

Worked cases, answers included:
item smiles	study target	recorded endpoint	readout units	obs value
O=C(Cc1ccc(Cl)cc1)N1CCN(S(=O)(=O)Cc2ccon2)[C@H]2CCC[C@H](N3CC[C@H](O)C3)[C@H]21	Kappa-type opioid receptor (Homo sapiens, UniProt P41145)	Activity	%	103
COC(=O)N1CCN(C(=O)Cc2ccc(Cl)c(Cl)c2)[C@@H]2[C@@H](N3CC[C@@H](O)C3)CCC[C@@H]21	Kappa-type opioid receptor (Homo sapiens, UniProt P41145)	Activity	%	109

Find the recorded Activity belonging to COC(=O)N1CCN(C(=O)Cc2ccc(F)c(F)c2)[C@@H]2[C@@H](N3CC[C@H](O)C3)CCC[C@@H]21 and report it. 108

Find the recorded Activity belonging to COC(=O)N1CCN(C(=O)Cc2ccc(F)c(Cl)c2)[C@@H]2[C@@H](N3CC[C@H](F)C3)CCC[C@@H]21 and report it. 92

----------
- study target: Sigma non-opioid intracellular receptor 1 (Cavia porcellus)
- test summary: Displacement of [3H]-(+)-pentazocine from sigma1-type […] receptor in guinea pig cortex membranes at 1 uM after 120 mins by solid scintillation counting
- Type: cell membranes
// reported inhibition for each item listed
Response body: numeric value in %, unit text excluded.

Worked cases, answers included:
item smiles	study target	readout units	inhibition
COC(=O)N1CCN(C(=O)Cc2ccc(Cl)c(Cl)c2)[C@@H]2[C@@H](N3CC[C@@H](O)C3)CCC[C@@H]21	Sigma non-opioid intracellular receptor 1 (Cavia porcellus)	%	0
CC(C)NC(=O)N1CCN(C(=O)Cc2ccc(Cl)c(Cl)c2)[C@@H]2[C@@H](N3CCCC3)CCC[C@@H]21	Sigma non-opioid intracellular receptor 1 (Cavia porcellus)	%	0
COC(=O)N1CCN(C(=O)Cc2ccc(Cl)c(Cl)c2)[C@@H]2[C@@H](N(C)C)CCC[C@@H]21	Sigma non-opioid intracellular receptor 1 (Cavia porcellus)	%	4

Find the recorded inhibition belonging to CNC(=O)C(=O)N1CCN(C(=O)Cc2ccc(Cl)c(Cl)c2)[C@@H]2[C@@H](N3CCCC3)CCC[C@@H]21 and report it. 0

Find the recorded inhibition belonging to O=C(Cc1ccc(Cl)c(F)c1)N1CCN(S(=O)(=O)Cc2ccon2)[C@H]2CCC[C@H](N3CC[C@H](O)C3)[C@H]21 and report it. 0

----------
// reported inhibition (INH) for each item listed
- System: Mus musculus
- test summary: Antiinflammatory activity in arachidonic acid-induced ear dermatitis ICR mouse model assessed as reduction in ear swelling at 3 mg administered twice tropically 30 mins prior and 15 mins after arachidonic acid addition measured 60 mins post arachidonic acid challenge relative to control
- Assay type: functional
Response body: numeric value in %, unit text excluded.

Worked cases, answers included:
item smiles	inhibition (INH), %
CS(=O)(=O)N1CCN(C(=O)Cc2ccc(Cl)c(F)c2)[C@@H]2[C@@H](N3CC[C@H](O)C3)CCC[C@@H]21	71
COC(=O)N1CCN(C(=O)Cc2ccc(Cl)cc2)[C@@H]2[C@@H](N3CC[C@H](O)C3)CCC[C@@H]21	62
CS(=O)(=O)N1CCN(C(=O)Cc2ccc(F)c(Cl)c2)[C@@H]2[C@@H](N3CC[C@H](O)C3)CCC[C@@H]21	69
COC(=O)N1CCN(C(=O)Cc2ccc(Cl)c(Cl)c2)[C@@H]2[C@@H](N3CCCC3)CCC[C@@H]21	51
CNC(=O)C(=O)N1CCN(C(=O)Cc2ccc(Cl)c(Cl)c2)[C@@H]2[C@@H](N3CCCC3)CCC[C@@H]21	65

Next item in the queue.
Identify the measured inhibition (INH) of COC(=O)N1CCN(C(=O)Cc2ccc(F)c(Cl)c2)[C@@H]2[C@@H](N3CC[C@H](O)C3)CCC[C@@H]21 for Mus musculus. 66

----------
- Species: Sus scrofa
- test summary: Displacement of [3H]-(+)-MK 801 from PCP binding site of NMDA receptor in pig brain cortex membranes at 10 uM after 120 mins by solid scintillation counting
- Assay type: cell membranes
recorded endpoint: inhibition (%)
Response body: numeric value in %, unit text excluded.

item smiles	inhibition [%]
COC(=O)CN1CCN(C(=O)Cc2ccc(Cl)c(Cl)c2)[C@@H]2[C@@H](N3CCCC3)CCC[C@@H]21	13

Find the recorded inhibition belonging to COC(=O)N1CCN(C(=O)Cc2ccc(F)c(Cl)c2)[C@@H]2[C@@H](N3CC[C@H](F)C3)CCC[C@@H]21 and report it. 0

Find the recorded inhibition belonging to CC(C)NC(=O)N1CCN(C(=O)Cc2ccc(Cl)c(Cl)c2)[C@@H]2[C@@H](N3CCCC3)CCC[C@@H]21 and report it. 0

Find the recorded inhibition belonging to COC(=O)N1CCN(C(=O)Cc2ccc(Cl)c(F)c2)[C@@H]2[C@@H](N3CC[C@H](O)C3)CCC[C@@H]21 and report it. 11

Find the recorded inhibition belonging to COC(=O)N1CCN(C(=O)Cc2ccc(Cl)c(Cl)c2)[C@@H]2[C@@H](N3CC[C@H](O)C3)CCC[C@@H]21 and report it. 21

Find the recorded inhibition belonging to CCOC(=O)CN1CCN(C(=O)Cc2ccc(Cl)c(Cl)c2)[C@@H]2[C@@H](N3CCCC3)CCC[C@@H]21 and report it. 0
